Target: B. subtilis Pol III (Bacillus subtilis, UniProt P13267)
Sequence (P13267 whole entry): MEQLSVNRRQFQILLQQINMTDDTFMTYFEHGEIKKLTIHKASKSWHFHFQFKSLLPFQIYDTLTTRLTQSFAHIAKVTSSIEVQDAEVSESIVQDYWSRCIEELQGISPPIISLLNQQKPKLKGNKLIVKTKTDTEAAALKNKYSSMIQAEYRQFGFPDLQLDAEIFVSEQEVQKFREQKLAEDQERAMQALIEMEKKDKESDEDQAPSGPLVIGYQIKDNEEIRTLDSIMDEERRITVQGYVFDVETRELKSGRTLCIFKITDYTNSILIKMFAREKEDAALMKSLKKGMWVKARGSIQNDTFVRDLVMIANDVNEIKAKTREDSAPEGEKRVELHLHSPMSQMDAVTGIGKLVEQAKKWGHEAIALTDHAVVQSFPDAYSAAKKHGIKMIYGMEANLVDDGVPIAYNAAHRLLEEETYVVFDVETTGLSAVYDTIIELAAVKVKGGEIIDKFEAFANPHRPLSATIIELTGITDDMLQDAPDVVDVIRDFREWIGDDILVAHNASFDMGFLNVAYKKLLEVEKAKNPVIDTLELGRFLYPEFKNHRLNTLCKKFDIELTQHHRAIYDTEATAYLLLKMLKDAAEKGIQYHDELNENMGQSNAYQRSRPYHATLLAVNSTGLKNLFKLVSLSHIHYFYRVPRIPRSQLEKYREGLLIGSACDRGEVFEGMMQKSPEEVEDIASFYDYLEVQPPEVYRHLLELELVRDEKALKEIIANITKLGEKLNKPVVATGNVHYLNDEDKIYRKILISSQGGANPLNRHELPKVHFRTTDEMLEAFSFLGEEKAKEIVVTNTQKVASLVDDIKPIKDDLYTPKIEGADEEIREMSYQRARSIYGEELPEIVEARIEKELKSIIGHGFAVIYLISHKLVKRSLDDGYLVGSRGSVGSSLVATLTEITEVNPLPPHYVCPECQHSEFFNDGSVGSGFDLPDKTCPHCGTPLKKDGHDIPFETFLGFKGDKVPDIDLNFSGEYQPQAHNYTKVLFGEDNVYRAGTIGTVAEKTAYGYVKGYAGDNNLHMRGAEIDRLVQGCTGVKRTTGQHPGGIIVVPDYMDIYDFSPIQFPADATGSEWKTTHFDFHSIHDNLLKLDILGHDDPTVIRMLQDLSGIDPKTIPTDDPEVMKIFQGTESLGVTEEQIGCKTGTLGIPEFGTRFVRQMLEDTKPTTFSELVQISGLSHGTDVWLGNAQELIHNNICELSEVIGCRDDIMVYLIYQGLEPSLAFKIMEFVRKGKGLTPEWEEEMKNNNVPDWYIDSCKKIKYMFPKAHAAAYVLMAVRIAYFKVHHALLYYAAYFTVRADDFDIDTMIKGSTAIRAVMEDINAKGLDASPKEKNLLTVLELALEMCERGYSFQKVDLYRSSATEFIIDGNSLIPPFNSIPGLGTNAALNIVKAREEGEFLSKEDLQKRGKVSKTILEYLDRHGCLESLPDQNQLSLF
Readings of IC50 for the listed compounds
Just the number please, in µM, no unit attached.

# example entries with known answers
O=c1cc(Nc2ccc3c(c2)CCC3)[nH]c(=O)[nH]1; 8
O=c1cc(N=Nc2ccccc2)[nH]c(=O)[nH]1; 34
O=c1cc(N=Nc2cccc(Cl)c2)[nH]c(=O)[nH]1; 48
Oc1cc(N=Nc2ccc(Cl)cc2)nc(O)n1; 57

Turning to the following compound.
Exam item: Notebook entry, B. subtilis Pol III (Bacillus subtilis, UniProt P13267) assay: IC50 of O=c1cc(N=Nc2ccc(O)cc2)[nH]c(=O)[nH]1 [HPUra, 6-(p-Hydroxyphenylazo)-uracil] = ?
Marked response: 11
